src = patent US11319324B2

Below is a list of entries, each paired with its recorded IC50 value.
- tgt: human P2X3 receptor (Homo sapiens, UniProt P56373)
- assayProtocol: Intracellular calcium measurement to assess antagonist activity at human P2X3 receptors (hP2X3 CHO), photina luminescence
- Format: cell-based
- Set-up: expressed in transfected cells; host or cells: Chinese hamster ovary (CHO) cells
- testSettings: column 2), CHO cells, agonist α,β-methylene-ATP at EC50
All answers are understood in nM, so give the number only.

As a guide, the following entries are already answered.
# molecule, quantityUnit, IC50
records = [
    ("CCc1cc2n(CC(=O)Nc3ccc(F)cn3)c3c(c(=O)n2n1)CN(C(C)CO)C3=O (racemic)", "nM", 155),
    ("CC(=O)N1CCC(c2cc3n(CC(=O)Nc4ccc(F)cn4)c4c(c(=O)n3n2)CN(C(C)C)C4=O)CC1", "nM", 35),
    ("CC(C)N1Cc2c(n(CC(=O)Nc3ccc(F)cn3)c3cc(C(=O)NC4CC4)nn3c2=O)C1=O", "nM", 94),
]

# input for lookup
Look at this molecule and give its reported IC50. CCc1cc2n(CC(=O)Nc3ccc(F)cn3)c3c(c(=O)n2n1)CN(CC(=O)N(C)CC1CC1)C3=O
240

----------
- tgt: human P2X3 receptor (Homo sapiens)
- Sequence (P56373 1-397): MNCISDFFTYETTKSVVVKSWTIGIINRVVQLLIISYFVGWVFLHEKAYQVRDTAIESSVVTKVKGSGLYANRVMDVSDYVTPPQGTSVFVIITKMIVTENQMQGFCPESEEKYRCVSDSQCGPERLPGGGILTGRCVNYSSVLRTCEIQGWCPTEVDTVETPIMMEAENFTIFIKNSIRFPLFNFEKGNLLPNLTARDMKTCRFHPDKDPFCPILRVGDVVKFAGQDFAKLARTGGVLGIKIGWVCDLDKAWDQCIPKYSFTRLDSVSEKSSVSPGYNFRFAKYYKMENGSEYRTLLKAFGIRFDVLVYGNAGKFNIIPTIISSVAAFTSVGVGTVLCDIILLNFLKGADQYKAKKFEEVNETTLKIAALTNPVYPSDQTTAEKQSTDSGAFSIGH
- assayProtocol: Intracellular calcium measurement to assess antagonist activity at human P2X3 receptors (hP2X3 FLIPR)
- Format: cell-based
- Parameters: expressed in transfected cells; host or cells: human astrocytoma 1321N1 (1312N1 [sic])
- testSettings: head prints (1321N1); read-out: 1) hP2X3 IC50 [nM] (1321N1)
Threshold check on IC50: strictly below 40 nM is Met; on or above 40 nM is Not met.

Recorded results for 5 molecules are shown here.
# molecule, classAssignment
records = [
    ("CC(C)(C)c1cc2n(CC(=O)Nc3ccc(Cl)cn3)c3c(c(=O)n2n1)CN(C1CCC1)C3=O", "Not met"),
    ("CC(C)(C)c1cc2n(CC(=O)Nc3ccc(Cl)cn3)c3c(c(=O)n2n1)CN(C1COC1)C3=O", "Not met"),
    ("COCC(C)N1Cc2c(n(CC(=O)Nc3ccc(F)cn3)c3cc(CO)nn3c2=O)C1=O (racemic)", "Not met"),
    ("Cc1ccc(NC(=O)Cn2c3c(c(=O)n4nc(C(C)(C)C)cc24)CN(C(C)C)C3=O)nc1", "Not met"),
    ("CC(C)N1Cc2c(n(CC(=O)Nc3ccc(F)cn3)c3cc(C(C)(C)C)nn3c2=O)C1=O", "Met"),
]

Lab note: confirm whether the reported IC50 for this molecule is below 40 nM, equality not counting. molecule: CC(C)(C)c1cc2n(CC(=O)Nc3ccc(F)cn3)c3c(c(=O)n2n1)CN(CCOCc1ccccc1)C3=O
Met

Would you kindly verify if IC50 of COCC(C)N1Cc2c(n(CC(=O)Nc3ccc(F)cn3)c3cc(C(C)(C)C)nn3c2=O)C1=O (centres unmarked) is strictly less than 40 nM?
Met

Problem: For the molecule Cc1cc2n(CC(=O)Nc3ccc(Cl)cn3)c3c(c(=O)n2n1)CN(C(C)C)C3=O , is IC50 under 40 nM?
Met
